# System: Neuregulin-1 EGF-like domain
# test_summary: small molecules binding NRG1 EGF domain – biochemical, small-molecule microarray, 635 nm fluorescence, primary screen (AID 1081);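 also: binding of the protein to compounds printed on small-molecule microarray slides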
# particulars: higher = more signal
Task for the reader: assign each of the following compounds its reported composite z-score.
Lab note: jot down the number only; don't add units.

Problem: Which composite z-score is reported with Neuregulin-1 EGF-like domain for this entry: CCOC(=O)C[C@H]1[C@H](OC(=O)c2cc3ccccc3oc2=O)[C@@H](NC(=O)CC(C)C)c2cc(OCCCO)ccc2N1C(=O)c1ccc2ccccc2n1 ?
Result: 1.1

Problem: Which composite z-score is reported with Neuregulin-1 EGF-like domain for this entry: CC(C)c1ccc(NN2C(C(O)c3ccc(C#N)cc3)C=CC3C(=O)N(c4ccccc4)C(=O)C32)cc1 (stereo unspecified) ?
Result: 1

Problem: Which composite z-score is reported with Neuregulin-1 EGF-like domain for this entry: CS(=O)(=O)CCOC(=O)C1=CC(c2ccc(CO)cc2)=CC(C2CC2)N(Cc2sc3ccccc3c2Cl)C=C1C(=O)OCCS(C)(=O)=O (stereo unspecified) ?
Result: 0.962

Problem: Which composite z-score is reported with Neuregulin-1 EGF-like domain for this entry: C=CCNC(=O)[C@H]1[C@@H]2C(=O)O[C@@H](c3ccccc3)[C@@H](c3ccccc3)N2[C@@H](c2ccccc2OCCO)[C@]12C(=O)N(C(=O)OCCOC)c1ccc(C#CC3(O)CCCCCC3)cc12 ?
Result: 1.2

Problem: Which composite z-score is reported with Neuregulin-1 EGF-like domain for this entry: COc1ccc([Si](C)(C)[C@H]2[C@H](CC(=O)N3CCC[C@H]3CO)O[C@@]3(C(=O)N(Cc4ccc(N5CCOC5=O)cc4)c4ccccc43)[C@@H]2C)cc1 ?
Result: 1.21

Problem: Which composite z-score is reported with Neuregulin-1 EGF-like domain for this entry: C=CCOC(=O)[C@@]1(Cc2ccccc2)C[C@H]2CO[C@H](c3ccc(OC)cc3)N2C1=O ?
Result: 0.209

###

# test_summary: probe aXIP binding to arrayed compounds – biochemical, NeuroSMM set, 635/667 nm fluorescence, primary screen (AID 1119);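 also: probe is the protein aXip251-270 applied at 1 µg/mL to compound-printed slides; binding of probe to printed compounds measured as 667 nm fluorescence plus signal to noise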
# particulars: small-molecule microarray, higher = more signal, called active from +8 up or from −8 down
Tag: Yes if measured composite Z-score is not below -0.3, No if it is.

Problem: Has CCOc1cc(C(O)C2C=CC3C(=O)NC(=O)C3N2Nc2ccc(Cl)cc2Cl)ccc1O (stereo not drawn) a recorded composite Z-score greater than or equal to -0.3?
Result: Yes

Problem: Has CN1C(=O)C2C=CC(C(O)c3cccn3C)N(Nc3ccc([N+](=O)[O-])cc3[N+](=O)[O-])C2C1=O (stereo not drawn) a recorded composite Z-score greater than or equal to -0.3?
Result: No

Problem: Has CCOC(=O)C1=CC[C@@H](c2ccccc2F)N(S(=O)(=O)c2ccc(C)cc2)[C@H]1c1ccccc1 a recorded composite Z-score greater than or equal to -0.3?
Result: Yes

Problem: Has [N-]=[N+]=NCc1ccccc1[C@H]1OC(c2ccc(OCCCO)cc2)=N[C@@]1(Cc1ccccc1N=[N+]=[N-])C(=O)NCC(O)CO (stereo partly drawn) a recorded composite Z-score greater than or equal to -0.3?
Result: Yes

Problem: Has COc1ccc([Si](C)(C)[C@@H]2[C@@H](CCO)O[C@]3(C(=O)N(Cc4ccccc4)c4ccc(N5C(=O)c6cccc7cccc5c67)cc43)[C@H]2C)cc1 a recorded composite Z-score greater than or equal to -0.3?
Result: Yes

Problem: Has Cn1cccc1C(O)C1C=CC2C(=O)N(c3ccccc3)C(=O)C2N1Nc1ccccc1 (stereo not drawn) a recorded composite Z-score greater than or equal to -0.3?
Result: Yes

Problem: Has CC(C)[Si]1(C(C)C)OCc2cc(C3CC3)nc(-c3ccc(Oc4ccccc4)cc3)c21 a recorded composite Z-score greater than or equal to -0.3?
Result: Yes

Problem: Has CC1CC/C=C\[C@H]2OC34C=CCN(c5ccc(Cl)cc5)C(=O)[C@H]3N(C(C)CO)C(=O)[C@]4(C)C2C(=O)O1 (stereo partly drawn) a recorded composite Z-score greater than or equal to -0.3?
Result: No

###

Task for the reader: assign each of the following molecules its reported z-score.
# test_summary: budding yeast growth modifiers under rapamycin – strain BY4716, OD600, 96 h, primary screen (AID 1091); also: test concentration not given here
# particulars: S. cerevisiae BY4716 + rapamycin, higher = more signal, called active from +8 up or from −8 down
Lab note: jot down the number only; don't add units.

Problem: Recorded z-score for C=CC[C@]1(C(=O)N2CCCCC2)N=C(c2ccc(OCCCO)cc2)O[C@H]1c1ccccc1CN=[N+]=[N-] , please?
Result: -0.837

Problem: Recorded z-score for CN(C)c1ccc(C(O)C2C=CC3C(=O)NC(=O)C3N2Nc2ccccn2)cc1 (configuration not stated) , please?
Result: 0.504

Problem: Recorded z-score for CC(CO)N1C(=O)[C@]2(C)C3C(=O)OCCC/C=C\[C@H]3OC23C=CCN(c2ccc(Cl)cc2)C(=O)[C@@H]13 (some centres not stated) , please?
Result: -0.14

Problem: Recorded z-score for COCC(=C=CC[C@H](O)c1ccc(OCCO)cc1)CCO , please?
Result: -0.274

Problem: Recorded z-score for CC(=O)NCCCC[C@@H]1NC(=O)[C@@H]2C[C@H](C(=O)NCCCCCN)[C@H](c3ccc(O)cc3)N2C1=O , please?
Result: 0.536

Problem: Recorded z-score for COCC(=C=CC[C@H](O)c1ccc(CO)o1)CCO , please?
Result: 0.244

Problem: Recorded z-score for Cn1cccc1C(O)C1C=CC2C(=O)N(c3ccccc3)C(=O)C2N1Nc1ccccc1 (configuration not stated) , please?
Result: 0.566

Problem: Recorded z-score for CC(C)N1CC=CC23O[C@@H]4C=CCCOC(=O)C4[C@H]2C(=O)N(CCCO)[C@@H]3C1=O (some centres not stated) , please?
Result: -0.824

Problem: Recorded z-score for CC1=C2[C@@H](CCc3ccccc3)OB(O)C[C@@H]2[C@@H]2C(=O)N(C)C(=O)[C@@H]2C1 , please?
Result: -1.24

Problem: Recorded z-score for COCC(=C=CC[C@H](O)c1ccccc1OCCO)C[C@H](O)c1ccccn1 , please?
Result: -0.505

Problem: Recorded z-score for COC(=O)[C@@]1(Cc2ccc(OC)cc2)[C@H]2c3cc(C(=O)N(C)C)n(Cc4ccc(OC(F)(F)F)cc4)c3C[C@H]2CN1C(=O)c1ccccc1 , please?
Result: 0.649

Problem: Recorded z-score for Oc1ccc2cc[n+](Cc3cc4c(cc3Br)OCO4)cc2c1 , please?
Result: 0.645

Problem: Recorded z-score for O=C(NCCN1CCOCC1)[C@@H]1c2ccccc2C(=O)N(Cc2ccccc2Cl)[C@H]1c1ccc(CO)cc1 , please?
Result: -0.214

Problem: Recorded z-score for CCOC(=O)C[C@H]1[C@H](OC(=O)c2ccc(C(=O)c3ccccc3)cc2)[C@@H](NC(=O)CC(C)C)c2cc(OCCCO)ccc2N1C(=O)c1ccccc1 , please?
Result: 0.276

Problem: Recorded z-score for Cc1ccc(F)cc1S(=O)(=O)N[C@@H]1CCN(Cc2ccc(Br)cc2)C1 , please?
Result: -1.73

Problem: Recorded z-score for COC(=O)C(CC#Cc1ccc2c(c1)[C@]1(C(=O)N2)[C@H](c2ccc(O)cc2)N2[C@H](c3ccccc3)[C@H](c3ccccc3)OC(=O)[C@H]2[C@@H]1C(=O)NC[C@H](O)c1ccccc1)C(=O)OC , please?
Result: -0.131

Problem: Recorded z-score for O=C1C2C=CC(C(O)c3ccco3)N(Nc3ccccc3F)C2C(=O)N1c1ccccc1 (configuration not stated) , please?
Result: -0.119

###

# target_or_system: Neurogenic locus notch homolog protein 3 (Homo sapiens)
# test_summary: small molecules binding NOTCH3 protein – biochemical, 635/667 nm fluorescence, primary screen (AID 1096)
# particulars: small-molecule microarray, 635 nm fluorescence, higher = more signal
property: composite z-score
Lab note: jot down the number only; don't add units.

Problem: Which composite z-score is reported with Neurogenic locus notch homolog protein 3 (Homo sapiens) for this entry: CCOC(=O)C[C@H]1[C@H](OC(=O)c2ccc(C(=O)c3ccccc3)cc2)[C@@H](NC(=O)c2ccc3ccccc3n2)c2cc(OCCCO)ccc2N1C(=O)Cc1ccc(OC)cc1 ?
Result: 0.312

Problem: Which composite z-score is reported with Neurogenic locus notch homolog protein 3 (Homo sapiens) for this entry: CCOC(=O)C[C@H]1[C@H](OC(=O)c2ccc(C(=O)c3ccccc3)cc2)[C@@H](NC(=O)CC(C)C)c2cc(OCCCO)ccc2N1C(=O)c1ccccc1 ?
Result: 0.961

Problem: Which composite z-score is reported with Neurogenic locus notch homolog protein 3 (Homo sapiens) for this entry: COCCOC(=O)N1C(=O)[C@@]2(c3cc(C#CC4(O)CCCCCC4)ccc31)[C@H](c1ccc(O)cc1)N1[C@H](c3ccccc3)[C@H](c3ccccc3)OC(=O)[C@H]1[C@@H]2C(=O)N1CCN(c2ncccn2)CC1 ?
Result: 0.987

Problem: Which composite z-score is reported with Neurogenic locus notch homolog protein 3 (Homo sapiens) for this entry: C=C(/C(=C/C[C@H](OC(C)=O)c1ccc(CO)o1)c1cnc2ccccc2c1)C(C)C ?
Result: 1.02

Problem: Which composite z-score is reported with Neurogenic locus notch homolog protein 3 (Homo sapiens) for this entry: CCCC=C(CCC)[C@@H](NS(=O)(=O)c1ccc(C(F)(F)F)cc1)c1ccccc1 ?
Result: 0.275

Problem: Which composite z-score is reported with Neurogenic locus notch homolog protein 3 (Homo sapiens) for this entry: COc1cc2c(cc1O)C=[N+](Cc1sc3ccccc3c1Cl)CC2 ?
Result: -0.119

Problem: Which composite z-score is reported with Neurogenic locus notch homolog protein 3 (Homo sapiens) for this entry: CCCC#C[Si](O[C@H](CC)c1cn([C@H](C)c2ccccc2)nn1)(C(C)C)C(C)C ?
Result: 0.579

Problem: Which composite z-score is reported with Neurogenic locus notch homolog protein 3 (Homo sapiens) for this entry: C[N+](C)(C)CCCCCCNC(=O)[C@@H]1C[C@@H]2C(=O)N3CCC[C@H]3C(=O)N2[C@@H]1c1ccc(O)cc1 ?
Result: 1.03

Problem: Which composite z-score is reported with Neurogenic locus notch homolog protein 3 (Homo sapiens) for this entry: O=C1C2C=CC(C(O)C3CC=CCC3)N(Nc3ccccc3)C2C(=O)N1c1ccccc1 (configuration not stated) ?
Result: 1.06

Problem: Which composite z-score is reported with Neurogenic locus notch homolog protein 3 (Homo sapiens) for this entry: C=CC[C@@]1(C(=O)NCCCOC)N=C(c2ccc(OCCCO)cc2)O[C@@H]1c1ccccc1N=[N+]=[N-] ?
Result: 0.681

Problem: Which composite z-score is reported with Neurogenic locus notch homolog protein 3 (Homo sapiens) for this entry: [N-]=[N+]=Nc1ccccc1C[C@]1(C(=O)O)COC(c2ccc(OCCCO)cc2)=N1 ?
Result: -0.609

Problem: Which composite z-score is reported with Neurogenic locus notch homolog protein 3 (Homo sapiens) for this entry: COc1cc(C(O)C2C=CC3C(=O)N(C)C(=O)C3N2Nc2ccccc2)cc(OC)c1OC (configuration not stated) ?
Result: 1.11

Problem: Which composite z-score is reported with Neurogenic locus notch homolog protein 3 (Homo sapiens) for this entry: CCCCC(=C=CC[C@H](O)c1ccc(OCCO)cc1)CCO ?
Result: -0.65

Problem: Which composite z-score is reported with Neurogenic locus notch homolog protein 3 (Homo sapiens) for this entry: C=C(COC)/C(=C/C[C@H](OC(=O)c1ccncc1)c1ccccc1OCCO)c1cc(C(=O)OC)ccc1OC ?
Result: 1.04

Problem: Which composite z-score is reported with Neurogenic locus notch homolog protein 3 (Homo sapiens) for this entry: O[C@@H](Cc1ccccc1)[C@@H](/C=C/C1CC1)N(CC#Cc1ccccc1)Cc1ccccc1Br ?
Result: -0.817

Problem: Which composite z-score is reported with Neurogenic locus notch homolog protein 3 (Homo sapiens) for this entry: O=C(O)[C@@H]1[C@@H]2C(=O)N(c3ccccc3)C(=O)[C@@H]2C[C@@H]1Sc1ccccc1 ?
Result: -1.56

Problem: Which composite z-score is reported with Neurogenic locus notch homolog protein 3 (Homo sapiens) for this entry: [N-]=[N+]=Nc1ccccc1C[C@]1(C(=O)N2CCOCC2)COC(c2ccc(OCCCO)cc2)=N1 ?
Result: 1.06
